test: chemical genetic growth profiling, strain panel (AID 1159580);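 also: tested at 20 µM; growth read once vehicle control cultures reached saturation at 30 °C; 1 = growth at the plate median or of vehicle wells; lower values mean less growth of the strain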; details: S. cerevisiae deletion strains, growth OD, locus YNL197C, strain WHI3, hits give low values
About 2,000 (36%) of roughly 5,500 compounds were called active. Roughly 18% stayed inconclusive and do not appear here. The list shows a part of the results.
Measured property: normalized growth

[[record]]
compound = "CC[C@@H]1C=C/C=C/C[C@H](C)[C@@H](O)[C@](C)(O)C(=O)[C@H](C)[C@@H](O)[C@H](C)C(=O)[C@H](C)[C@@H](O)[C@H](C)/C=C/C(=O)O[C@H]2[C@@H](C)[C@@H](CC1)O[C@@]1(CC[C@@H](C)[C@@H](CC(C)O)O1)[C@@H]2C (stereo partly specified)"
measured_property = "normalized growth"
numeric_result = 0.99

[[record]]
compound = "CCn1cc(C(=O)O)c(=O)c2cc(F)c(N3CCNC(C)C3)c(F)c21 (stereo unspecified)"
measured_property = "normalized growth"
numeric_result = 1

[[record]]
compound = "CN(C)CCN(Cc1cccs1)c1ccccn1"
measured_property = "normalized growth"
numeric_result = 0.992

[[record]]
compound = "NCCC(=O)NCCc1cnc[nH]1"
measured_property = "normalized growth"
numeric_result = 0.984

[[record]]
compound = "O=c1c(-c2ccc(O)cc2)coc2cc(O)ccc12"
measured_property = "normalized growth"
numeric_result = 0.979

[[record]]
compound = "CC(C)NC[C@H](O)COc1cccc2[nH]ccc12"
measured_property = "normalized growth"
numeric_result = 1.01

